Readings of pEC50 for the listed compounds
Target: Calcium Sensing Receptor (CaSR) (Homo sapiens)
Construct: expressed in transfected cells
Sequence (P41180 20-1078): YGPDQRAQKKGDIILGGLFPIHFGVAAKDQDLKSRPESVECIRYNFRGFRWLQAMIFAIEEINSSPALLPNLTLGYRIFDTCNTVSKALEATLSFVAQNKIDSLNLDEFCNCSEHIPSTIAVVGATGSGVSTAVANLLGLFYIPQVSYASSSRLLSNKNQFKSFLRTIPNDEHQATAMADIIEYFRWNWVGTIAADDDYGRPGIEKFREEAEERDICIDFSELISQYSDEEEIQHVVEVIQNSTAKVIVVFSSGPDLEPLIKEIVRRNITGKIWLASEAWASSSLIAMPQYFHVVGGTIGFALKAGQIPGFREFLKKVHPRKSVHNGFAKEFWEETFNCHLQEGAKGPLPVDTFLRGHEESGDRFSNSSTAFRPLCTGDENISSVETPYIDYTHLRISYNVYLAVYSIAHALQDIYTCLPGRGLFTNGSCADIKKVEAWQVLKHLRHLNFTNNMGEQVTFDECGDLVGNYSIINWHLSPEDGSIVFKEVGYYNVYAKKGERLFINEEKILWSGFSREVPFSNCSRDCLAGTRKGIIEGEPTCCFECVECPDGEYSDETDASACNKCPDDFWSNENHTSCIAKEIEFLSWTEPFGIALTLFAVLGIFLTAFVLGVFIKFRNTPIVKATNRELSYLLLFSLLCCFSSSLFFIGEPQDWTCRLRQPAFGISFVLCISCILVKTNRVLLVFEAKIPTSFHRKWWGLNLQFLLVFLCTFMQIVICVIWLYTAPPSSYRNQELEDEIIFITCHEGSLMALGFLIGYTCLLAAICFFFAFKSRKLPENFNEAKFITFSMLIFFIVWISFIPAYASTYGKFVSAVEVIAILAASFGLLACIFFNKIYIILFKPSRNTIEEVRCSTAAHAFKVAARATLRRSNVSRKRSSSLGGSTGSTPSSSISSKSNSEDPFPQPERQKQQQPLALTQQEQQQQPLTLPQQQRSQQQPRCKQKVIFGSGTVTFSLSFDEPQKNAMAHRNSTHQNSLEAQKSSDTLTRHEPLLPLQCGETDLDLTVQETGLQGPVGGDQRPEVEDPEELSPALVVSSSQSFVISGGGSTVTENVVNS
Experiment Summary: In-vitro assay of calcimimetics through modulation of Calcium Sensing Receptor (intracellular calcium increase, FLIPR)
Format: cell-based
Condition Description: stably transfected HEK293 cells expressing hCaSR; Fluo4NW dye; 0.3 mM CaCl2; 8-point assay; read-out: EC50 Range
pEC50: −log10 of the molar value. Where a name gives a salt, the structure may show the parent alone.

Consider the reported pEC50 for these compounds:
> print(dat)
                                   compound  measured.result
1  COc1cc([C@@H](C)NCC2Cc3ccccc3N(c3ccc(C)c(C(=O)O)c3)C2)ccc1F (single isomer, unassigned) [Example 73a, hydrochloride]           > 7.70
2  Cc1ccc(C(=O)O)cc1C1C[C@H](CN[C@H](C)c2cccc3ccccc23)Cc2ccccc21 (single isomer, unassigned) [Example 14b, hydrochloride]           > 7.70
3  Cc1cc(C(=O)O)cc(C2CC(CN[C@H](C)c3cccc4ccccc34)Cc3ccccc32)c1 (single isomer, unassigned) [Example 9c, hydrochloride]     6.70 to 7.30
4  Cc1cc(C2CC(N[C@H](C)c3cccc4ccccc34)Cc3ccccc32)ccc1C(=O)O (stereo partly drawn) [Example 23, hydrochloride]     7.30 to 7.70
5  Cc1ccc(N2CC(CCCN[C@H](C)c3cccc4ccccc34)Cc3ccccc32)cc1C(=O)O (single isomer, unassigned) [Example 78b, hydrochloride]           > 7.70

Record request: pEC50 value, item C[C@@H](NCC1Cc2ccccc2C(c2cccc(C(=O)O)c2)C1)c1cccc2ccccc12 (single isomer, unassigned) [Example 2a, hydrochloride] > 7.70
